Sourced from patent US20220356255A1

- Test Target: T1, human PD-L1-Fc protein (human, UniProt Q9NZQ7 19-239)
- T1 construct: Bought from R&D Systems; also called immobilised PD-L1-Fc; not shown: Fc part of the bought fusion protein, not described
- T1 sequence (Q9NZQ7 19-239 limits assumed): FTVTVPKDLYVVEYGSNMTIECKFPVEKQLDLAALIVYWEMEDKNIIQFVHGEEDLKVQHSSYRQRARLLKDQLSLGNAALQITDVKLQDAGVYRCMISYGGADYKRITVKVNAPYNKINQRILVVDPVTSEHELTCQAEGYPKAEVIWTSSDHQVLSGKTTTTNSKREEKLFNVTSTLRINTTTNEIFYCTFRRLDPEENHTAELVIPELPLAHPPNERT
- Test Name: ELISA, purified Fab on coated human PD-L1-Fc, pH 6 (FIG. 4)
Parameter: concentration at saturation of binding (nM)
Give bare numbers, in nM.

Q: Any idea what its concentration at saturation of binding is? The binder is Fab 8G08 (Fab, V domains shown, Purified Fab prepared from IgG with the Pierce kit; also called 8G08 Fab) VH: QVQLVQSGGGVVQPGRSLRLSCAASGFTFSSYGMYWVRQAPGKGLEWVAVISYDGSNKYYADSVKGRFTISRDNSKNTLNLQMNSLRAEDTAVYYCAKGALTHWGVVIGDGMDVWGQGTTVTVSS VL: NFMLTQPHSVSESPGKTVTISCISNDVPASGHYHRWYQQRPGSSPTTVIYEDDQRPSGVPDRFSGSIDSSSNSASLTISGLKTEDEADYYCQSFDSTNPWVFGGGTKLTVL
Result: 4
